# studySystem: Human Progestin Receptor in T47-D Cells (Homo sapiens, UniProt P06401)
# Construct: The human breast carcinoma (T-47D) cell line was used to assess RBA for progestin receptor; host or cells: T-47D human breast carcinoma cells
# Sequence (P06401 1-933): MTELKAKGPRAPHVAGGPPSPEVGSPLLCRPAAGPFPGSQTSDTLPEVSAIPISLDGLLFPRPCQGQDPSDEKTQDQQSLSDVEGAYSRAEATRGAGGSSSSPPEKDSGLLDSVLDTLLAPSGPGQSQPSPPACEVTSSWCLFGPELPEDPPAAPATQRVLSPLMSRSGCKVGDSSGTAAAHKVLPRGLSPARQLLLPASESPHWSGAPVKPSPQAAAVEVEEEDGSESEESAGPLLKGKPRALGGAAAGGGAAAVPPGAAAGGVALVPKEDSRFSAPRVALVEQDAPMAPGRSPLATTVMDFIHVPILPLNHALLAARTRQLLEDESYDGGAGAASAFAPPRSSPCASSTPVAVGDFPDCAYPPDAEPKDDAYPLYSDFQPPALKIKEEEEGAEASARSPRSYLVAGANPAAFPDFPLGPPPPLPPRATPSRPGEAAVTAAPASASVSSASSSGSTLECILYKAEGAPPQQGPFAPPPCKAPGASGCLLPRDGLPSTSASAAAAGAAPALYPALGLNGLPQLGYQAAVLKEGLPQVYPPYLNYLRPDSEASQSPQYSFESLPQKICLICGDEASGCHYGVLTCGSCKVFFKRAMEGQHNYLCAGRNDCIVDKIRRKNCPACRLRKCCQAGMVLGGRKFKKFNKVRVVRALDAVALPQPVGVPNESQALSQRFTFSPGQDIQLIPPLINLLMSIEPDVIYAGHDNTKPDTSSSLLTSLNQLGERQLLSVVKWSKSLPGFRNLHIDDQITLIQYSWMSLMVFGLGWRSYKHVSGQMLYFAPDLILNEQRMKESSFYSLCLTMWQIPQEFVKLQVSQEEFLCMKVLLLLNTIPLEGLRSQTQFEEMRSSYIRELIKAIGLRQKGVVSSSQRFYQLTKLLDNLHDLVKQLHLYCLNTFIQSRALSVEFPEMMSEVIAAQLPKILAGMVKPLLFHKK
# assayNotes: Whole cell receptor binding (competition with 3H-R5020) in T-47D human breast carcinoma cells
# experimentalConditions: RBA relative to reference standard R5020 (promegestone), ratio of concentrations causing 50% displacement; compared in the same assay
measuredAttribute: Relative Binding % R5020 (%)

CN(C)c1ccc([C@H]2C[C@@]3(C)[C@@H](CC[C@@]34CCCS4)[C@@H]3CCC4=CC(=O)CCC4=C32)cc1 ... 105
CSc1ccc([C@H]2C[C@@]3(C)[C@@H](CC[C@@]34CCCS4)[C@@H]3CCC4=CC(=O)CCC4=C32)cc1 ... 49
CC(=O)c1ccc([C@H]2C[C@@]3(C)[C@@H](CC[C@@]34CCC[S+]4[O-])[C@@H]3CCC4=CC(=O)CCC4=C32)cc1 (single isomer, unassigned) [Compound 22b] ... 2
CN(C)c1ccc([C@H]2C[C@@]3(C)[C@@H](CC[C@@]34CCC[S+]4[O-])[C@@H]3CCC4=CC(=O)CCC4=C32)cc1 (single isomer, unassigned) [Compound 21a] ... 128
CN(C)c1ccc([C@H]2C[C@@]3(C)[C@@H](CC[C@@]34CCC[S+]4[O-])[C@@H]3CCC4=CC(=O)CCC4=C32)cc1 (single isomer, unassigned) [Compound 21b] ... 43
CN(C)c1ccc([C@H]2C[C@@]3(C)[C@@H](CC[C@@]34CCCS4(=O)=O)[C@@H]3CCC4=CC(=O)CCC4=C32)cc1 ... 29
CC(=O)c1ccc([C@H]2C[C@@]3(C)[C@@H](CC[C@@]34CCC[S+]4[O-])[C@@H]3CCC4=CC(=O)CCC4=C32)cc1 (single isomer, unassigned) [Compound 22a] ... 2
